- targetEntity: ΔNTD GPG (Homo sapiens, UniProt P04792, I181G/V183G)
- Construct: For all other Hsp27 constructs (GPG, ΔNTD consisting of residues 80–205); inferred from the PMCSG7 vector and Ni-NTA purification) (N); made in house; host or cells: E. coli BL21 (DE3)
- Sequence (P04792 80-205 I181G/V183G limits assumed): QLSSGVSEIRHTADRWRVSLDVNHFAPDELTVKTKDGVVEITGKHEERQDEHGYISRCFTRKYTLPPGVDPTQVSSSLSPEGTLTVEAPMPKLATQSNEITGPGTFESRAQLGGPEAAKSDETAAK
- experimentDescription: ITC of optimized IPV peptide with Hsp27 ΔNTD GPG
- Assay type: binding
- conditionContext: Fig. 4b, peptide (1 mM) into ΔNTD GPG (100 µM), 25 °C, mean ± SEM, minimum of three independent experiments
Ends that are not written are not given here.
observedProperty: pKd
Give only the number. pKd is defined as minus log10 of concentration in molar units.

[in] Item EITIPVTHE [Hsp27 IPV H] has what recorded pKd?
[out] 4.84
